# assay.method.text: yeast display, Sf9 membrane polyspecificity reagent, FACS + sequencing; frameworks hold sequencing errors
metric: polyreactivity (PSR sort gate)

Worked cases, polyreactivity (PSR sort gate) given:
sequence.input	polyreactivity (PSR sort gate)
QVQLVESGGGLVQAGGSLRLSCAASGRIFDDYAMGWYRQAPGKERELVAAIRSGGNTNYADSVKGRFTISRDNAKNTVYLQMNSLKPEDTADYYCAADTWFRAGYFVVYYDYWGQGTQVTVSS	low polyreactivity
QVQLVESGGGLVQAGGSLRLSCAASGRIFVRYAMGWYRQAPGKERELVAAINWRGSSTYYADSVKGRFTISRDNAKNTVYLQMTSLKPEDTAVYYCNTAQRYRVYRYDYWGQGTQVTVSS	high polyreactivity
QFQLVESGGGLVQAGGSLRLSCAASGSTFEKNAMGWYRQAPGKERDLVDAISNGVSTYYADSVKGRFTISRDNAKNSVFLQMISLKPEDTAVYFCAADLFFGAETVYYDKFDYWGQGTKVTVSS	low polyreactivity
QVQLVESGGGLVQAGGSLRLSCAASGNIFSYYAMGWYRQAPGKERELVAAIRSSGVGTRYADSVKGRFTISRDNAKNTVYLQINSLKPEDTAVYYCAATGYTGYSRYYYWGQGTQVTVSS	high polyreactivity
QVQLVESGGGLVQAGGSLRLSCAASGRIVANAMGWYRQAPGKESELVAAITATYYADSVKGRFTISRDNAKNTVYLQMNSLKPEDTAVYYFNAYLSPKQPLSPPDPSFEGGYWGQGTQVTVSS	low polyreactivity

Per the record, QVQLVESGGGLVQAGGSLRLSCAASGYTFTIYAMGWYRQAPGKERELVASISIDGSTYYADSVKGRFTISRDNAKNTVYLQMNSLKREDTAVYYCAADYYYYTPGFDYWGQGTQVTVSS has polyreactivity (PSR sort gate) of low polyreactivity

The value of polyreactivity (PSR sort gate) measured for the sequence QVQLVESGGGLVQAGGSLRLSCAASGFTFTKNTMGWYRQAPGKERELVAAITKSGGRTYYADSVKGRFTISRDNAKNTVYLQMNSLKPEDTAVYYCAADYVRNNYPYGYWGQGTQVTVSS turned out to be high polyreactivity

Lookup result for QVQLVESGGGIVQAGGSLRLSCAASGFIFRYAMGWYRPAPGKERELVAAISSSGGSTNYADSVKGRFTISRDNAKNTVYLQMNILKPEDSAVYYCAADQYYGGSWWYDYWGQGTQVSVSS ; measured polyreactivity (PSR sort gate): high polyreactivity

get_value(item= QVQLVESGGGLVQAGGSLRLSCAASGSTFSGYAMGWYRQAPGKERELVAGIRLDGSRTYYADSVKGRFTISRDNAKNTVYLQMNSLKPEDTAVYYCAAPSGTYWTRREYWGQGSQVTVSS , readout=polyreactivity (PSR sort gate)) returns low polyreactivity

Noted for QVQLVESGGGLVQAGGSLRLSCAASGRIYVYYVLGWYRQAPGKERELVAAITYSGGSTYYADSVKGRFTISRDNAKNTVYLQMNSLKPEDTAVYYCNKVDAFGIVRLYYWGQGTQVTVSS : its polyreactivity (PSR sort gate) reads low polyreactivity

polyreactivity (PSR sort gate) measured on QVQLVESGGGLVQAGGSLRLSCAASGRTFFRNVMGWYRQAPGKERELVAGITWTGGTTYYADSVKGRFTISRDNAKNTVYLQMNSLKPEDTAVYYCATRNYAVVPSVRREGYYWGQGTQVTVSS = low polyreactivity

====

# assay.method.text: yeast display, Sf9 membrane polyspecificity reagent, FACS + sequencing; frameworks hold sequencing errors

sequence.input	polyreactivity (PSR sort gate)
QVQLVESGGGLVQAGGSLRLSCAASGRIFRANTMGWYRQAPGKERELVATSSKNGGRTYYADSVKGRFTISRDNAKNTVYLQMNSLKPEDTAVYYCNAEWRGWRFLEYGSYIYQSGYWGQGTQVTVSS	high polyreactivity
QVQLVESGGGLVQAGGSLRLSCAASGIIFYRYAMGWYRQAPGKERELVAAITWRGGSTYYADSVKGRFTISRDNAMNTVYLQMNSLKPEDTAVYYCAARRRATYELDYWGQGTQVNVSS	high polyreactivity

====

# assay.method.text: yeast display, Sf9 membrane polyspecificity reagent, FACS + sequencing; frameworks hold sequencing errors
metric: polyreactivity (PSR sort gate)

sequence.input	val
QVQLVDSGGGLDQAGGSLPLSCAASGSTFVAYAMGWYRQAPGKERELVADNSTSDGSTRYADSVKGRFTISRDNAKNTVYLQMNSLKPEDTAVYYCAAGSEYYSYGGVRFSFYYWGQGTQVTVSS	low polyreactivity
QVQLVESGGGLVQAGGSLRLSCAASGRIFWINAMGWYRQAPGKERELVATISSGSTSYADSVKGRFTISRDNAKNTVYLHLNSLKPEDTAVYYCAVSLRYTRSGAYYYWGQGTQVTVSS	low polyreactivity

====

# assay.method.text: yeast display, Sf9 membrane polyspecificity reagent, FACS + sequencing; frameworks hold sequencing errors
metric: polyreactivity (PSR sort gate)

sequence.input	metric	val
QVQLVETGGGLVHAGGSLRLSCAASGRTFEPNAMGWYRQAPGKERELVATISYSGGRTNYADSVKGRFTISRDNAKNTVYLQMKILKPEDTAVYYCATRTYYRRVCIRDFWGQGTLVTVSS	polyreactivity (PSR sort gate)	high polyreactivity
QVQLVESGGRLVQAGGSLRLSCAASGRTFYRYVMGWYRQAHGQVRELVAAISEGGGSTFYADSVKGRFTISRDNAKNTVYLQLNSLKPEDTAVYYCAADYYVRGGFFRYDYWGQGTQVTVSS	polyreactivity (PSR sort gate)	low polyreactivity
QVQLVESGGGLVQAGGSLRLSCAASGSIFGGNAMGCYRQAPGKERELVAAITDGGNTNYADSVKGRFTISRDNAKNTVYLQMNSLKPEDTAVYYCAARMPGTYGGRYGYDYWGQGTQVTVSS	polyreactivity (PSR sort gate)	low polyreactivity
QVQLVESGGGLVQSGGILRLSCAASGSTSPIYAMGWYRQAPGTERELVAAINGVGSTNYADSVKGRFTISRDNAKTTVYFQMNSLKPADTAVYYCAADGTALHEYLGDYDYWGQGTQVTVSS	polyreactivity (PSR sort gate)	low polyreactivity

Here's the next entry for you.
Measured polyreactivity (PSR sort gate), QVQLVESGGGLVQAGGSLRLSCAASGRIFRRYAMGWNRQAPGKEMELVAAISRSGGSTYYADSVKGRFTISRDNAKNTVYLQMNSLKPEDTAVYYCNRRYITYNYDYWGQGTQVTVSS : high polyreactivity

====

# assay.method.text: yeast display, Sf9 membrane polyspecificity reagent, FACS + sequencing; frameworks hold sequencing errors

sequence.input	polyreactivity (PSR sort gate)
QVQLVESGLGLVQAGGSLRLSCAASGTTLLGYAMGWYRQAPGKERELVAAITGSGGRTSYADSVKGRFTISRDNAKNTVYLQMNSLKPEDTAVYYCAAARRYHFQRFNYWGQGTQVTVSS	high polyreactivity
QVQLVESGGGLVQAGGSLRLSCAASGSIFEKYAMGWYRQAPGKERELVAAISRGTNTKYADSVKGRFTISRDNAKNTVYLQMNSLKPEDTAVYNGAARYNTYRTRIYSMDYWGQGTQVTVSS	high polyreactivity
QVQLVESGGGLVQAGGSLRLSCAASGRTFRSYAMGWYRQAPGKERELVAAITWGGGRTYYADSVKGRFTISRDNAKNTVYLQMNSLKPEDTAVYYCATRVKFSTSYWLYYWGQGTQVTVSS	high polyreactivity

====

# assay.method.text: yeast display, Sf9 membrane polyspecificity reagent, FACS + sequencing; frameworks hold sequencing errors
metric: polyreactivity (PSR sort gate)

sequence.input	metric	val
QVQLVESGGGLVQAGGSLRLSCAASGSIILGYAMGWYRQAPGKERELVAAIRRSSAGTYYADSVKGRFTISRDNAKNTVYLQMISLKPEDTAVYYCAWYPATYRWAYYYWGQGTQVTVSS	polyreactivity (PSR sort gate)	high polyreactivity
QVQLVESGGGLVQAGGSLRLSCAASGFTFYYNDMGWYRQAPGKERELVATITNS	polyreactivity (PSR sort gate)	low polyreactivity
QVQLVESGGGLVQAGGSLRLSCAASGFIFDYYAMGWYRHAPGKERELVAAITSRGGSTYYADSVKGRFTISRDNAKNTVYLQMNSLKPEDTAVYYCAARRRSAEYNYWGQGTQVTVSS	polyreactivity (PSR sort gate)	high polyreactivity
QVQLVESGGGLVQAGGSLRLSCAASGITFGTYAMGWYRQATGKERELVDAITRGGRTYYADSVKGRFTISRDNDKNTVYLQMYSLKPEDTAVYYCNAYVLRRYGWRSGDDYDYWGQGTQVNVSS	polyreactivity (PSR sort gate)	high polyreactivity
QVQLVESGGGLVQAGGSLRLSCAASGSTFKFNTMGWYRQAPGKERELVAAISWRGGSTYYADSVKGRFTISRDNAKNTVYLQMYSLKPEDTAFYYCAAPWYIRYDSWGQGTQVTVSS	polyreactivity (PSR sort gate)	high polyreactivity

Sure, the documented polyreactivity (PSR sort gate) for QEQLEESGGGVVQAGGSLRLSCAAYGSIFYAYSMGWYRQAPGKEREFVAASSKRGGSTYYSDSVKGRFTISRDNEKNTVYLQMNSLKPEDTAVYYCYVGYGYWRGVKQSYDRFDYWGQGTQVTVSS is high polyreactivity

The measured polyreactivity (PSR sort gate) associated with QVQLVESGGGLVQAGGSLRLSCAASGSTFSRNAMGWYRQAPGKERELVATISWRGGSTYYADSVKGRFTISRDNAKNTVYLQMNSLKPEDTAVYYCATLHRPAYYYWGQGTQVTVSS reads high polyreactivity

// polyreactivity (PSR sort gate) lookup, sequence = QVQLVESGGGLVQEGGSLRLSCAASGRIFSRYVMGWYRQAPGKERELVAAITGSGGSTYYADSVKGRFTISRDNAKNTVYLQMNSLKPEDTADYYCAVVSRANSYRYNYWGQGTQVTVSS , result: high polyreactivity

Given item QVQLVESGGGLVQAGGSLRLSCAASGSTFSVYAMGWYRQAPGKERELVAAISWSGGSTYYADSVKGRFTISRDNAKNTVYLQMNSLKPEDTAVYYCNATVTYYRYYAYVRRYYWGQGTQVTVSS , the value recorded as its polyreactivity (PSR sort gate) is high polyreactivity
